B1: TTC32 (parent)
chain: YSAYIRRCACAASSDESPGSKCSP

Variants of: B1
method: protein stability index of a GFP-peptide fusion (GPS, HEK-293T) (PSI 1-6); higher = more stable;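 also: lentivirally expressed fusions sorted by FACS into six bins by GFP to DsRed ratio, PSI derived from sequencing read proportions per bin multiplied by bin number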
condition-parameters: c terminus: a fixed tail appended
In this section we review reported protein stability index values for a set of variants.

ordered-residues: YSAYIRRCACAASTDESPGSKCSP [S14T]
protein stability index: 1.93
--
ordered-residues: YSAYIRRCACAASSDESPGSKCLP [S23L]
protein stability index: 2.08
--
ordered-residues: YSAYIRRCACAASSDEDPGSKCSP [S17D]
protein stability index: 2.05
--
ordered-residues: YSAYIRRCACAASSDESPGSECSP [K21E]
protein stability index: 2.3
--
ordered-residues: YSAYIRRCACAASSDMSPGSKCSP [E16M]
protein stability index: 2.42
--
ordered-residues: YSAYIRRCACAASSDESPGSKCKP [S23K]
protein stability index: 2.06
--
ordered-residues: YSAYIRRCSCAASSDESPGSKCSP [A9S]
protein stability index: 1.98
--
ordered-residues: YSAYIRRCACAASSDESPGSKMSP [C22M]
protein stability index: 1.71
--
ordered-residues: YSAYIRRCACAASDDESPGSKCSP [S14D]
protein stability index: 2.38
--
ordered-residues: YSAYIRRCACAASSDESPGSHCSP [K21H]
protein stability index: 1.97
--
ordered-residues: YSAYIRRCACAASSDESPGHKCSP [S20H]
protein stability index: 2.8
--
ordered-residues: YSAYIRRCACAASSDESPNSKCSP [G19N]
protein stability index: 2.24
--
ordered-residues: YSAYIRRCACWASSDESPGSKCSP [A11W]
protein stability index: 2.04
--
ordered-residues: YSAYIIRCACAASSDESPGSKCSP [R6I]
protein stability index: 2.43
--
ordered-residues: YSAYIRRCACAASSMESPGSKCSP [D15M]
protein stability index: 2.28
--
ordered-residues: YSAQIRRCACAASSDESPGSKCSP [Y4Q]
protein stability index: 2.65
--
ordered-residues: YSAYIRRCACAYSSDESPGSKCSP [A12Y]
protein stability index: 1.75
--
ordered-residues: YSAYIRRWACAASSDESPGSKCSP [C8W]
protein stability index: 2.48
--
ordered-residues: YSAYIRRCACAASSDESIGSKCSP [P18I]
protein stability index: 1.95
--
ordered-residues: YSAYIRRCACAKSSDESPGSKCSP [A12K]
protein stability index: 1.81
--
ordered-residues: YSAYIRRCACAASSDEEPGSKCSP [S17E]
protein stability index: 2.38
--
ordered-residues: YSAYIRRYACAASSDESPGSKCSP [C8Y]
protein stability index: 2.07
--
ordered-residues: YSAYIRRCACAASSDLSPGSKCSP [E16L]
protein stability index: 1.58
--
ordered-residues: YSAYIRRCACIASSDESPGSKCSP [A11I]
protein stability index: 1.94
--
ordered-residues: YSAYIRRCACAASSDESPGSKKSP [C22K]
protein stability index: 2.35
--
ordered-residues: YSAYIRRCACAASSDCSPGSKCSP [E16C]
protein stability index: 1.83
--
ordered-residues: YSAAIRRCACAASSDESPGSKCSP [Y4A]
protein stability index: 2.01
--
ordered-residues: YSAYIRCCACAASSDESPGSKCSP [R7C]
protein stability index: 1.55
--
ordered-residues: YSAYIPRCACAASSDESPGSKCSP [R6P]
protein stability index: 2.66
--
ordered-residues: YSAYIRRCACAASSDESPGCKCSP [S20C]
protein stability index: 3.96
--
ordered-residues: YSAYIRRCACAASSDESNGSKCSP [P18N]
protein stability index: 2.33
--
ordered-residues: YSAYIRRMACAASSDESPGSKCSP [C8M]
protein stability index: 2.05
--
ordered-residues: YSAYIRRCAIAASSDESPGSKCSP [C10I]
protein stability index: 2.38
--
ordered-residues: YSAYIRRCACAPSSDESPGSKCSP [A12P]
protein stability index: 2.26
--
ordered-residues: YSAYIRRCACAASSDESPGSKCSA [P24A]
protein stability index: 2.03
--
ordered-residues: YSAYIRRCACAASSDESPGSKCSH [P24H]
protein stability index: 2.54
--
ordered-residues: YSAYIRRCACAASSDESPGSKCSF [P24F]
protein stability index: 1.35
--
ordered-residues: YSAYIRRCACAASSWESPGSKCSP [D15W]
protein stability index: 1.6
--
ordered-residues: YSAYWRRCACAASSDESPGSKCSP [I5W]
protein stability index: 3.7
--
ordered-residues: YSAYIRKCACAASSDESPGSKCSP [R7K]
protein stability index: 2.23
--
ordered-residues: YSAYIRRCDCAASSDESPGSKCSP [A9D]
protein stability index: 2.58
--
ordered-residues: YSAYIRRNACAASSDESPGSKCSP [C8N]
protein stability index: 3.41
--
ordered-residues: YAAYIRRCACAASSDESPGSKCSP [S2A]
protein stability index: 2.38
--
ordered-residues: YSAYIRRCARAASSDESPGSKCSP [C10R]
protein stability index: 2.78
--
ordered-residues: YSAYIRRCACAASPDESPGSKCSP [S14P]
protein stability index: 2.29
--
ordered-residues: YSAYIRRCACAASSDESPGSKCSD [P24D]
protein stability index: 2
--
ordered-residues: YSAYIRRCATAASSDESPGSKCSP [C10T]
protein stability index: 2.73
--
ordered-residues: YSAYIRRCACAASSDERPGSKCSP [S17R]
protein stability index: 2.28
--
ordered-residues: YSAYIRRCACAASSDTSPGSKCSP [E16T]
protein stability index: 2.22
--
ordered-residues: YSAYIRRSACAASSDESPGSKCSP [C8S]
protein stability index: 3.03
--
ordered-residues: YSAYIRRCECAASSDESPGSKCSP [A9E]
protein stability index: 3.19
--
ordered-residues: YSAYIRRCACAASSDESPVSKCSP [G19V]
protein stability index: 1.03
--
ordered-residues: YSAYIRRCACAMSSDESPGSKCSP [A12M]
protein stability index: 1.82
--
ordered-residues: YSAYIRRCACAASSDESPMSKCSP [G19M]
protein stability index: 1.74
--
ordered-residues: YSAYERRCACAASSDESPGSKCSP [I5E]
protein stability index: 3.46
--
ordered-residues: PSAYIRRCACAASSDESPGSKCSP [Y1P]
protein stability index: 2.88
--
ordered-residues: YSAEIRRCACAASSDESPGSKCSP [Y4E]
protein stability index: 3.34
--
ordered-residues: YSSYIRRCACAASSDESPGSKCSP [A3S]
protein stability index: 2.43
--
ordered-residues: MSAYIRRCACAASSDESPGSKCSP [Y1M]
protein stability index: 2.45
--
ordered-residues: YSAYIRRCGCAASSDESPGSKCSP [A9G]
protein stability index: 1.82
--
ordered-residues: YSAYIRRCACAASQDESPGSKCSP [S14Q]
protein stability index: 2.19
--
ordered-residues: YSAYIRRCAEAASSDESPGSKCSP [C10E]
protein stability index: 3.78
--
ordered-residues: YSAYSRRCACAASSDESPGSKCSP [I5S]
protein stability index: 2.52
--
ordered-residues: YSAYIRRCACAAPSDESPGSKCSP [S13P]
protein stability index: 1.89
--
ordered-residues: YSAYIRRCACAASSDESPGSKASP [C22A]
protein stability index: 2.72
--
ordered-residues: YSAYIRACACAASSDESPGSKCSP [R7A]
protein stability index: 2.17
--
ordered-residues: YSAYIRRCACAESSDESPGSKCSP [A12E]
protein stability index: 2.55
--
ordered-residues: YSAYIRRCACAASSDESPGSKGSP [C22G]
protein stability index: 2.35
--
ordered-residues: YSAYIRRCACAASSDESPGPKCSP [S20P]
protein stability index: 1.68
--
ordered-residues: YSAYIRRCACAASSDESPGSVCSP [K21V]
protein stability index: 1.62
--
ordered-residues: YSAYIRRCACAASSDEWPGSKCSP [S17W]
protein stability index: 1.78
--
ordered-residues: LSAYIRRCACAASSDESPGSKCSP [Y1L]
protein stability index: 2.61
--
ordered-residues: TSAYIRRCACAASSDESPGSKCSP [Y1T]
protein stability index: 2.52
--
ordered-residues: YSAYIRRCACAHSSDESPGSKCSP [A12H]
protein stability index: 2.16
--
ordered-residues: YSASIRRCACAASSDESPGSKCSP [Y4S]
protein stability index: 2.29
--
ordered-residues: YSAYIRRCACAASSDESPGSKHSP [C22H]
protein stability index: 2.14
--
ordered-residues: YSAYIRRCACAASSDESPGSKCVP [S23V]
protein stability index: 2.52
--
ordered-residues: YSAYIRRCACAASVDESPGSKCSP [S14V]
protein stability index: 1.53
--
ordered-residues: YHAYIRRCACAASSDESPGSKCSP [S2H]
protein stability index: 4.15
--
ordered-residues: YSAYIRRCACAAHSDESPGSKCSP [S13H]
protein stability index: 2.1
--
ordered-residues: YSAYIRRCACAAQSDESPGSKCSP [S13Q]
protein stability index: 1.96
--
ordered-residues: YSAYIRRCACAASSAESPGSKCSP [D15A]
protein stability index: 3.53
--
ordered-residues: YSAYIRRCACAASSDESPGSKVSP [C22V]
protein stability index: 2.1
--
ordered-residues: YSAYIRRCACAASSDEAPGSKCSP [S17A]
protein stability index: 2.17
--
ordered-residues: YSAYIRRCACKASSDESPGSKCSP [A11K]
protein stability index: 2.36
--
ordered-residues: YSAYIRRCACHASSDESPGSKCSP [A11H]
protein stability index: 2.33
--
ordered-residues: YSAYIRRCAKAASSDESPGSKCSP [C10K]
protein stability index: 3.42
--
ordered-residues: YSAYIRRCACAASSDESPGDKCSP [S20D]
protein stability index: 2.7
--
ordered-residues: YSAYIRRCACAASSDQSPGSKCSP [E16Q]
protein stability index: 2.18
--
ordered-residues: YSAYIRRCACAASSDESPGSKCNP [S23N]
protein stability index: 2.17
--
ordered-residues: YSAYIRREACAASSDESPGSKCSP [C8E]
protein stability index: 3.93
